test method notes: NCI Yeast Anticancer Drug Screen. Data for the mlh1 rad18 strain (AID 175)
test conditions: S. cerevisiae mlh1 rad18 strain growth inhibition; at 50.0 µM; hits give high values
About 79,000 compounds went through this panel and 15% of them were active in at least one assay; those are over-represented in the sample as a whole.
endpoint: growth inhibition (%)
Just the number in %, nothing appended.

{"compound": "C[Si](C)(C)CN=P(c1ccccc1)(c1ccccc1)c1ccccc1", "readout unit": "%", "growth inhibition": -4.8}
{"compound": "O=C1/C(=C/c2ccc3c(c2)OCO3)CC/C1=C\\c1ccc2c(c1)OCO2", "readout unit": "%", "growth inhibition": -26.9}
{"compound": "O=C(O)/N=N\\C(=O)O", "readout unit": "%", "growth inhibition": -27.2}
{"compound": "O=C(/C=C/C=C/c1ccc2c(c1)OCO2)N1CCCCC1", "readout unit": "%", "growth inhibition": -22.7}
{"compound": "COC(=O)/C(=N\\O)C(C(=O)C=C(C)C)C(=O)C(=O)Nc1ccccc1C (stereo unspecified)", "readout unit": "%", "growth inhibition": -18.1}

Request: Report measured growth inhibition; entry is Cc1nn(C(=O)c2ccccc2O)c2c1C(c1ccc(O)cc1)SC(N)=N2 (stereo unspecified)
Result: 6.65

Request: Report measured growth inhibition; entry is `Cc1c(C)c(C)c(CCl)c(CCl)c1C`
Result: 24.6

Request: Report measured growth inhibition; entry is `S=c1[nH]ncn2nc3ccccc3c12`
Result: 1.7

Request: Report measured growth inhibition; entry is `O=C(O)Cc1[nH]c(=O)[nH]c(=O)c1CCl`
Result: -18.1

Request: Report measured growth inhibition; entry is CC1(C)OC2COC(c3[nH]nc(C(N)=O)c3C(=O)N=[N+]=[N-])C2O1 (stereo unspecified)
Result: -9.95

Request: Report measured growth inhibition; entry is `CCN(CC)CCCNc1ccnc2ccc(Cl)cc12`
Result: 2.55

Request: Report measured growth inhibition; entry is `CCCCCCCCCCCC(=O)CC(=O)c1c(O)cccc1O`
Result: -12.2

Request: Report measured growth inhibition; entry is `C=C[Si](Cl)(Cl)c1ccccc1`
Result: 11.2

Request: Report measured growth inhibition; entry is `CCOc1ccccc1/C=C(\C#N)c1cccc(Cl)c1`
Result: -4.15

Request: Report measured growth inhibition; entry is `Brc1nc2c3ccccc3ncn2c1Br`
Result: 23.3

Request: Report measured growth inhibition; entry is `CCCCCCCC(=O)CC(C)C`
Result: 6.65

Request: Report measured growth inhibition; entry is `Cc1nc2c(=O)[nH]c(=S)[nH]c2[nH]c1=O`
Result: -1

Request: Report measured growth inhibition; entry is `FC(F)(F)c1ccc(C(Nc2nncs2)Nc2nncs2)cc1`
Result: 0.75

Request: Report measured growth inhibition; entry is `Nc1ccc(S(=O)(=O)Nc2nccs2)cc1`
Result: -3.4

Request: Report measured growth inhibition; entry is `CC(C)OCCOCCO`
Result: -1.2

Request: Report measured growth inhibition; entry is `CCCOC(=O)/C=C(\Cl)C(=O)OCCC`
Result: -5.8

Request: Report measured growth inhibition; entry is COC(SC)(C(=O)O)c1cc(-c2c(Cl)cccc2Cl)no1 (stereo unspecified)
Result: -1
